In this section, each of the molecules is paired with its reported MTT Assay (Viability) 4 h d-U937, percentage loss of cell viability.
Tested on: Differentiated U937 cells
run description: Cell viability MTT assay
Format: cell-based, human
test settings: 4 hr in 5% FCS; negative = apparent increase in viability
Protocol: Differentiated U937 cells were pre-incubated with each test compound under two protocols: the first for 4 hr in 5% FCS and the second in 10% FCS for 24 h. […] After incubation for 1 hr the media were removed, 200 μL of DMSO was added to each well and the plates were shaken lightly for 1 hr prior to reading the absorbance at 550 nm. The percentage loss of cell viability was calculated for each well relative to vehicle (0.5% DMSO) treatment. […]
Report the value in % with no unit label.

In [3]: df
Out[3]:
                            chemical_smiles  val
0  COc1ccc(-n2nc(C(C)(C)C)cc2NC(=O)Nc2ccc(Oc3ccnc(NC(=O)NC4CC4)c3)c(C#N)c2Cl)cc1  1.0

Incoming: Report the value of MTT Assay (Viability) 4 h d-U937, percentage loss of cell viability obtained on Differentiated U937 cells for CNC(=O)Nc1cc(COc2ccc(NC(=O)Nc3cc(C(C)(C)C)nn3-c3ccc(C)cc3)c(Cl)c2Cl)ccn1 .
Outgoing: −14.1

Incoming: Supply MTT Assay (Viability) 4 h d-U937, percentage loss of cell viability measured with Differentiated U937 cells for CNC(=O)Nc1cc(Oc2ccc(NC(=O)Nc3cc(C(C)(C)C)nn3-c3ccc(C(=O)O)cc3)c(Cl)c2Cl)ccn1 .
Outgoing: −15.4
